Tested on: normal primary NK cells, pool 1 (3 donors) (IL-2 2.5 ng/mL)
Test: percent inhibition of viability; higher = more inhibition
Details: 72 h; 10000 nM
We begin with a simple list: items and their reported percent inhibition of viability.
The response must be a number in % with no trailing unit.

Before answering, review these 6 worked examples.
Oc1ncnc2[nH]ncc12 [Allopurinol] (max concentration tested 10000 nM) : 4.11
N#CC[C@H](C1CCCC1)n1cc(-c2ncnc3[nH]ccc23)cn1 [Ruxolitinib] (max concentration tested 10000 nM) : 74.3
Nc1cc(C(F)(F)F)c(-c2cc(N3CCOCC3)nc(N3CCOCC3)n2)cn1 [Buparlisib] (max concentration tested 10000 nM) : 28.6
O=C(Cc1ccc(-c2ccc(OCCN3CCOCC3)cc2)cn1)NCc1ccccc1 [KX2-391] (max concentration tested 10000 nM) : 36.6
O=C(c1ccc(OCCN2CCCCC2)cc1)c1c(-c2ccc(O)cc2)sc2cc(O)ccc12 [Raloxifene] (max concentration tested 10000 nM) : 20.9
Nc1nc(F)nc2c1ncn2[C@@H]1O[C@H](CO)[C@@H](O)[C@@H]1O [Fludarabine] (max concentration tested 10000 nM) : 93.6

Next:
# input molecule: O=C(Nc1cccnc1)N1CCC(Cc2cccc(Oc3ccc(C(F)(F)F)cn3)c2)CC1 [PF-3845] (max concentration tested 10000 nM) ; wanted: its percent inhibition of viability
64.3

====

Recorded percent inhibition of viability for the following compounds
Tested on: SNK-6 (IL-2 2.5 ng/mL)
Experiment: percent inhibition of viability; higher = more inhibition
Settings: 72 h; 100 nM
Report the value in % with no unit label.

Sample records with percent inhibition of viability:
Clc1ccc(C(c2ccccc2Cl)C(Cl)Cl)cc1 (stereo not drawn) [Mitotane] (max concentration tested 10000 nM) : -5.92
Cc1cc(C)c(/C=C2\C(=O)Nc3ccccc32)[nH]1 [Semaxanib] (max concentration tested 10000 nM) : -2.4
Cc1cc(C)c(CNC(=O)c2cc(-c3ccc(CN4CCOCC4)cc3)cc3c2cnn3C2CCCC2)c(=O)[nH]1 [EPZ-5687] (max concentration tested 10000 nM) : -5.25

Alright, here's another compound for you.
Item under review: COc1cccc2c1C(=O)c1c(O)c3c(c(O)c1C2=O)C[C@@](O)(C(=O)CO)C[C@@H]3O[C@H]1C[C@H](N)[C@H](O)[C@H](C)O1 [Doxorubicin] (max concentration tested 1000 nM) . Reported percent inhibition of viability?
80.6

====

Reported percent inhibition of viability by item:
System: NK-YS (IL-2 2.5 ng/mL)
Assay: percent inhibition of viability; higher = more inhibition
Details: 72 h; 1000 nM
Please give a number only; it is taken to be in %.

Some solved entries appear below for comparison.
C[C@]1(O)C[C@@H](c2nc(-c3ccc4ccc(-c5ccccc5)nc4c3)c3c(N)nccn32)C1 [Linsitinib] (max concentration tested 10000 nM) : 3.9
CS(=O)(=O)c1ccc(-c2cnc(N)c(C(=O)Nc3ccccc3)n2)cc1 [VE-821] (max concentration tested 10000 nM) : 25.1

# next molecule below
Requested read-out: percent inhibition of viability. Entry: Nc1nccc(-c2c(-c3ccc(F)cc3)ncn2C2CCCCC2)n1 (max concentration tested 10000 nM)
14.9

====

As shown below, each of these compounds has a reported drug sensitivity score value.
System: normal primary NK cells, pool 2 (3 donors) (IL-2 2.5 ng/mL)
Assay: drug sensitivity score (DSS) (DSS units); higher = more sensitive; extreme values may be limits of the assay
Details: 72 h
Give the value as a plain number.

What does the data say about its drug sensitivity score? Entry: C[C@]1(c2nc3c(C(N)=O)cccc3[nH]2)CCCN1 [Veliparib] (max concentration tested 10000 nM)
0.16

====

Tested on: KHYG-1 (IL-2 2.5 ng/mL)
Assay: percent inhibition of viability; higher = more inhibition
Conditions: 72 h; 100 nM
Note to self: use yes (1) only for percent inhibition of viability readings below 10%; a reading exactly at 10% still gets no (0).

Past entries and their recorded results:
CN(C)C1CCN(C(=O)c2ccc(NC(=O)Nc3ccc(-c4nc(N5CCOCC5)nc(N5CCOCC5)n4)cc3)cc2)CC1 [Gedatolisib] (max concentration tested 1000 nM) : yes (1)
COc1cccc2cc(-c3nc([C@H]4CC[C@H](C(=O)O)CC4)n4ncnc(N)c34)[nH]c12 [OSI-027] (max concentration tested 10000 nM) : yes (1)
N#Cc1ccc(COC[C@H]2O[C@@H](n3c(NCc4ccc(Cl)c(Cl)c4)nc4c(N)ncnc43)[C@H](O)[C@@H]2O)cc1 (max concentration tested 10000 nM) : yes (1)
O=c1[nH]cc(F)c(=O)[nH]1 [Fluorouracil] (max concentration tested 10000 nM) : yes (1)
CNC(=O)c1ccc(N2C(=S)N(c3ccc(C#N)c(C(F)(F)F)c3)C(=O)C23CCC3)cc1F [RD162] (max concentration tested 10000 nM) : yes (1)

Consider CCc1cc2c(cc1N1CCC(N3CCOCC3)CC1)C(C)(C)c1[nH]c3cc(C#N)ccc3c1C2=O [Alectinib] (max concentration tested 1000 nM) . Does its percent inhibition of viability lie strictly below 10%?
no (0)

Identify whether the compound CCn1cc(-c2ccnc3[nH]c(-c4cccc(CN(C)C)c4)cc23)c(-c2ccc(NC(=O)N(C)C)cc2)n1 (max concentration tested 1000 nM) records percent inhibition of viability below 10%.
no (0)

Hello, I'm reviewing records and need to know if percent inhibition of viability of Oc1ncnc2[nH]ncc12 [Allopurinol] (max concentration tested 10000 nM) is below 10%. Could you check?
yes (1)

Is percent inhibition of viability of CO[C@H]1C[C@@H]2CC[C@@H](C)[C@@](O)(O2)C(=O)C(=O)N2CCCC[C@H]2C(=O)O[C@H]([C@H](C)C[C@@H]2CC[C@@H](OP(C)(C)=O)[C@H](OC)C2)CC(=O)[C@H](C)/C=C(\C)[C@@H](O)[C@@H](OC)C(=O)[C@H](C)C[C@H](C)/C=C/C=C/C=C/1C [Ridaforolimus] (max concentration tested 100 nM) strictly below 10%?
no (0)

Consider Cn1cnc2c(F)c(Nc3ccc(Br)cc3F)c(C(=O)NOCCO)cc21 [Binimetinib] (max concentration tested 1000 nM) . Does its percent inhibition of viability lie strictly below 10%?
no (0)

====

// values below are reported percent inhibition of viability
Test system: NK-92 (IL-2 2.5 ng/mL)
Test: percent inhibition of viability; higher = more inhibition
Conditions: 72 h; 25 nM
Express the result in % but write the number alone.

Below, each entry is followed by its recorded percent inhibition of viability result.
O=C(Nc1ccc(OC(F)(F)F)cc1)c1sccc1NCc1ccnc2ccccc12 [OSI-930] (max concentration tested 2500 nM) : -8.56
COc1ccc(CCc2nc3cc(-c4c(C)noc4C)ccc3n2C[C@H](C)N2CCOCC2)cc1Cl [SGC-CBP30] (max concentration tested 25000 nM) : -20.5
CCOc1ccn(-c2ccc(F)cc2)c(=O)c1C(=O)Nc1ccc(Oc2ccnc(N)c2Cl)c(F)c1 (max concentration tested 2500 nM) : 21.5

Consider the molecule shown here: CC(=O)Nc1cccc(-n2c(=O)n(C3CC3)c(=O)c3c(Nc4ccc(I)cc4F)n(C)c(=O)c(C)c32)c1 [Trametinib] (max concentration tested 250 nM) What is its recorded percent inhibition of viability?
-31.2

====

Test system: KAI3 (IL-2 2.5 ng/mL)
Test: percent inhibition of viability; higher = more inhibition
Settings: 72 h; 10 nM
Property: percent inhibition of viability
Kindly write the number and append the unit.

Solved entries (count: 2):
COCC(=O)NC/C=C/c1ccc2ncnc(Nc3ccc(Oc4ccc(C)nc4)c(C)c3)c2c1 (max concentration tested 10000 nM) : 7.76%
Cn1cc(-c2ccc3nnc(C(F)(F)c4ccc5ncccc5c4)n3n2)cn1 (max concentration tested 10000 nM) : 0.25%

Please look up its percent inhibition of viability: C#Cc1cccc(Nc2ncnc3cc(OC)c(OCCCCCCC(=O)NO)cc23)c1 [CUDC-101] (max concentration tested 10000 nM)
0.88%

Can you look up the measured percent inhibition of viability of Cc1cc(C)c(/C=C2\C(=O)Nc3ccccc32)[nH]1 [Semaxanib] (max concentration tested 10000 nM) for me?
-0.88%

Can you look up the measured percent inhibition of viability of COc1cccc2cc(-c3nc([C@H]4CC[C@H](C(=O)O)CC4)n4ncnc(N)c34)[nH]c12 [OSI-027] (max concentration tested 10000 nM) for me?
0.41%

Can you share its percent inhibition of viability? I mean this molecule: Cc1ccc(NC(=O)c2ccc(CN3CCN(C)CC3)cc2)cc1Nc1nc(-c2cccnc2)cs1 [Masitinib] (max concentration tested 10000 nM)
0.29%

====

Below, each entry is listed with its recorded percent inhibition of viability.
System: NK-92 (IL-2 2.5 ng/mL)
Assay: percent inhibition of viability; higher = more inhibition
Settings: 72 h; 1 nM
Write the value in % as a bare number.

Reference set, count: 10
CN(C)CCOc1ccc(/C(=C(/CCCl)c2ccccc2)c2ccccc2)cc1 [Toremifene] (max concentration tested 10000 nM) : -4.85
COC1=CC(c2cc3ccccc3[nH]2)=N/C1=C\c1[nH]c(C)cc1C [Obatoclax] (max concentration tested 10000 nM) : -5.85
O=C(Nc1cccnc1)N1CCC(Cc2cccc(Oc3ccc(C(F)(F)F)cn3)c2)CC1 [PF-3845] (max concentration tested 10000 nM) : -1.76
N#Cc1ccc(COC[C@H]2O[C@@H](n3c(NCc4ccc(Cl)c(Cl)c4)nc4c(N)ncnc43)[C@H](O)[C@@H]2O)cc1 (max concentration tested 10000 nM) : -0.8
CC(C)(C)c1cc(NC(=O)Nc2ccc(-c3cn4c(n3)sc3cc(OCCN5CCOCC5)ccc34)cc2)no1 [Quizartinib] (max concentration tested 1000 nM) : 6.77
CN(C)C1CCN(C(=O)c2ccc(NC(=O)Nc3ccc(-c4nc(N5CCOCC5)nc(N5CCOCC5)n4)cc3)cc2)CC1 [Gedatolisib] (max concentration tested 1000 nM) : -9.3
CC(C)c1cc(-c2n[nH]c(=O)n2-c2ccc3c(ccn3C)c2)c(O)cc1O [Ganetespib] (max concentration tested 1000 nM) : -10.1
CC[C@@H]1C(=O)N(C)c2cnc(Nc3ccc(C(=O)NC4CCN(C)CC4)cc3OC)nc2N1C1CCCC1 [BI 2536] (max concentration tested 1000 nM) : -5.85
COc1cc2c(NC3CCN(C(C)C)CC3)nc(N3CCC(F)(F)CC3)nc2cc1OCCCN1CCCC1 [UNC0642] (max concentration tested 10000 nM) : -11
CO[C@H]1C[C@@H]2CC[C@@H](C)[C@@](O)(O2)C(=O)C(=O)N2CCCC[C@H]2C(=O)O[C@H]([C@H](C)C[C@@H]2CC[C@@H](OP(C)(C)=O)[C@H](OC)C2)CC(=O)[C@H](C)/C=C(\C)[C@@H](O)[C@@H](OC)C(=O)[C@H](C)C[C@H](C)/C=C/C=C/C=C/1C [Ridaforolimus] (max concentration tested 100 nM) : -5.98

Please report the recorded percent inhibition of viability for Cc1ccc(NC(=O)c2ccc(CN3CCN(C)CC3)cc2)cc1Nc1nc(-c2cccnc2)cs1 [Masitinib] (max concentration tested 10000 nM) .
-1.64

Which percent inhibition of viability reading was recorded for the molecule O=C(Nc1ccc(-c2ccnc(Nc3ccc(N4CCOCC4)cc3)n2)cc1)C1CCCN1 (configuration not stated) [XL019] (max concentration tested 10000 nM) ?
1.46

May I ask what percent inhibition of viability has been recorded for COc1cc(OC2CCN(C)CC2)ccc1Nc1ncc2c(n1)n(C1CCCC1)c(=O)n2C [AZ 3146] (max concentration tested 10000 nM) ?
0.39

I would be grateful if you could share the reported percent inhibition of viability for CNC(=O)c1cc(COc2nnc(Nc3ccc(Cl)cc3)c3ccoc23)ccn1 [Telatinib] (max concentration tested 10000 nM) .
-14.3

For the molecule shown here, CCCCc1nc2cc(/C=C/C(=O)NO)ccc2n1CCN(CC)CC [Pracinostat] (max concentration tested 10000 nM) , give the reported percent inhibition of viability.
0.01

Value lookup for percent inhibition of viability; key = COc1cccc2c1C(=O)c1c(O)c3c(c(O)c1C2=O)C[C@@](O)(C(=O)CO)C[C@@H]3O[C@H]1C[C@H](N)[C@H](O)[C@H](C)O1 [Doxorubicin] (max concentration tested 1000 nM)
11.3

Which value of percent inhibition of viability has been reported for Clc1ccc(C(c2ccccc2Cl)C(Cl)Cl)cc1 (configuration not stated) [Mitotane] (max concentration tested 10000 nM) in the records?
-11.9

# percent inhibition of viability lookup, item O=C(c1ccc(OCCN2CCCCC2)cc1)c1c(-c2ccc(O)cc2)sc2cc(O)ccc12 [Raloxifene] (max concentration tested 10000 nM)
1.94
